protocolSummary: Phase 1a study: pharmacokinetics after oral BID dosing in subjects with advanced solid tumors
Format: in vivo, human
statedConditions: human, in vivo, po, 300 mg, 300 mg single oral dose, Cycle 1 Day 1, geometric mean, N = 4; read-out: Vz/F
Structures can show the parent of a compound that is named as a salt.
measuredEndpoint: Vd/F (L)
All answers are understood in L, so give the number only.

Supply recorded Vd/F for Cc1cc(NC(=O)[C@H](O)c2cc(F)cc(F)c2)ccc1-c1cnc(N)c(C(=O)NC(C)C)c1 [Form A of the hemi-fumarate salt] here.
619

----------
protocolSummary: Phase 1a study: pharmacokinetics after oral BID dosing in subjects with advanced solid tumors
Type: in vivo, human
statedConditions: human, in vivo, po, 400 mg, 400 mg twice daily oral, Cycle 1 Day 21, geometric mean, N = 2; read-out: AUC0-last
Where a name gives a salt, the structure may show the parent alone.
measuredEndpoint: AUC(0-t)

Supply recorded AUC(0-t) for Cc1cc(NC(=O)[C@H](O)c2cc(F)cc(F)c2)ccc1-c1cnc(N)c(C(=O)NC(C)C)c1 [Form A of the hemi-fumarate salt] here.
30800 ng·h/mL

Data provenance: patent US20260265199A1
